system: HeLa; experiment: Cytotoxicity against human HeLa cells at 100 uM after 3 days by coulter counter method; type: cell-based; details: 72 h
MEASURED ENDPOINT: Activity

{"columns": ["COMPOUND", "TARGET DESC", "Activity"],
 "data": [
  ["CCOC(=O)C(=O)N(Cc1cc(F)cc(F)c1)c1ccc2c(c1)N(C)CC(C)(COc1ccc(C(=N)N)cc1)O2 (stereo not drawn)", "HeLa", "Toxic"],
  ["CCOC(=O)CN(Cc1cccc(F)c1)c1ccc2c(c1)OC(C)(COc1ccc(C(=N)N)cc1)CN2C (stereo not drawn)", "HeLa", "Toxic"],
  ["CCOC(=O)C(=O)N(Cc1ccccc1)c1ccc2c(c1)OC(COc1ccc(C(=N)N)cc1)CO2 (stereo not drawn)", "HeLa", "Non-toxic"],
  ["CCOC(=O)C(=O)N(Cc1cccc(F)c1)c1ccc2c(c1)N(C)CC(C)(COc1ccc(C(=N)N)cc1)O2 (stereo not drawn)", "HeLa", "Toxic"],
  ["CCOC(=O)CN(Cc1cc(F)cc(F)c1)c1ccc2c(c1)OC(C)(COc1ccc(C(=N)N)cc1)CN2C (stereo not drawn)", "HeLa", "Toxic"],
  ["CCOC(=O)CN(Cc1cccc(F)c1)c1ccc2c(c1)N(C)CC(C)(COc1ccc(C(=N)N)cc1)O2 (stereo not drawn)", "HeLa", "Toxic"],
  ["CCOC(=O)C(=O)N(Cc1cc(F)cc(F)c1)c1ccc2c(c1)OC(C)(CO)CN2C (stereo not drawn)", "HeLa", "Toxic"]
]}

Please look at the following compound next.
Lookup result for "CCOC(=O)C(=O)N(Cc1ccccc1)c1ccc2c(c1)OC[C@H](COc1ccc(C(=N)N)cc1)O2" ; measured Activity: Non-toxic

* * *

biological target: Prothrombin (Homo sapiens); test: Inhibition of thrombin
What pKi was measured for each of the following?
Answers are plain numbers, as −log10 of the molar value.

{"columns": ["COMPOUND", "pKi"],
 "data": [
  ["CCOC(=O)C(=O)N(Cc1ccccc1)c1ccc2c(c1)OC(COc1ccc(C(=N)N)cc1)CO2 (configuration not stated)", 6.75]
]}

# context switch: different compound, same pKi
Record summary for "CCOC(=O)C(=O)N(Cc1ccccc1)c1ccc2c(c1)OC[C@H](COc1ccc(C(=N)N)cc1)O2" : reported pKi = 7.74

* * *

assay: Cytotoxicity against bovine BAEC cells at 100 uM after 3 days by coulter counter method; format: cell-based, Bos taurus; settings: cattle, 72 h
MEASURED ENDPOINT: Activity

Answered examples (7):
{"columns": ["COMPOUND", "MEASURED ENDPOINT", "VALUE"],
 "data": [
  ["CCOC(=O)CN(Cc1ccc(F)c(F)c1)c1ccc2c(c1)OC(C)(COc1ccc(C(=N)N)cc1)CN2C (stereo not drawn)", "Activity", "Toxic"],
  ["CCOC(=O)C(=O)N(Cc1ccccc1)c1ccc2c(c1)OC(COc1ccc(C(=N)N)cc1)CO2 (stereo not drawn)", "Activity", "Non-toxic"],
  ["CCOC(=O)C(=O)N(Cc1ccc(F)cc1)c1ccc2c(c1)N(C)CC(C)(COc1ccc(C(=N)N)cc1)O2 (stereo not drawn)", "Activity", "Toxic"],
  ["CCOC(=O)C(=O)N(Cc1cc(F)cc(F)c1)c1ccc2c(c1)N(C)CC(C)(COc1ccc(C(=N)N)cc1)O2 (stereo not drawn)", "Activity", "Toxic"],
  ["CCOC(=O)C(=O)N(Cc1ccccc1)c1ccc2c(c1)OC[C@H](COc1ccc(C(=N)N)cc1)O2", "Activity", "Non-toxic"],
  ["CCOC(=O)CN(Cc1ccc(F)cc1)c1ccc2c(c1)OC(C)(COc1ccc(C(=N)N)cc1)CN2C (stereo not drawn)", "Activity", "Toxic"],
  ["CCOC(=O)CN(Cc1cc(F)cc(F)c1)c1ccc2c(c1)OC(C)(COc1ccc(C#N)cc1)CN2C (stereo not drawn)", "Activity", "Toxic"]
]}

In the following, a different compound is considered.
Entry under test: CCOC(=O)C(=O)N(Cc1ccccc1)c1ccc2c(c1)OC(C)(CO)CN2C (stereo not drawn) . Its Activity was Toxic

* * *

experiment: Cytotoxicity against bovine BAEC cells at 30 uM after 3 days by coulter counter method; assay type: cell-based, Bos taurus; settings: cattle, 72 h
MEASURED ENDPOINT: Activity

Completed entries (count: 6):
{"columns": ["COMPOUND", "Activity"],
 "data": [
  ["CCOC(=O)CN(Cc1ccc(F)c(F)c1)c1ccc2c(c1)OC(C)(COc1ccc(C(=N)N)cc1)CN2C (configuration not stated)", "Toxic"],
  ["CCOC(=O)C(=O)N(Cc1ccc(F)c(F)c1)c1ccc2c(c1)N(C)CC(C)(COc1ccc(C(=N)N)cc1)O2 (configuration not stated)", "Non-toxic"],
  ["CCOC(=O)C(=O)N(Cc1ccc(F)cc1)c1ccc2c(c1)OC(C)(COc1ccc(C(=N)N)cc1)CN2C (configuration not stated)", "Non-toxic"],
  ["CCOC(=O)CN(Cc1ccc(F)c(F)c1)c1ccc2c(c1)N(C)CC(C)(COc1ccc(C(=N)N)cc1)O2 (configuration not stated)", "Toxic"],
  ["CCOC(=O)CN(Cc1cccc(F)c1)c1ccc2c(c1)N(C)CC(C)(COc1ccc(C(=N)N)cc1)O2 (configuration not stated)", "Toxic"],
  ["CCOC(=O)CN(Cc1ccc(F)cc1)c1ccc2c(c1)N(C)CC(C)(COc1ccc(C(=N)N)cc1)O2 (configuration not stated)", "Toxic"]
]}

Please give Activity, item by item, for the list that follows.
1. CCOC(=O)C(=O)N(Cc1ccc(F)c(F)c1)c1ccc2c(c1)OC(C)(COc1ccc(C(=N)N)cc1)CN2C (configuration not stated)
2. CCOC(=O)C(=O)N(Cc1ccc(F)cc1)c1ccc2c(c1)N(C)CC(C)(COc1ccc(C(=N)N)cc1)O2 (configuration not stated)
3. CCOC(=O)CN(Cc1cc(F)cc(F)c1)c1ccc2c(c1)OC(C)(COc1ccc(C(=N)N)cc1)CN2C (configuration not stated)
4. CCOC(=O)C(=O)N(Cc1cc(F)cc(F)c1)c1ccc2c(c1)N(C)CC(C)(COc1ccc(C(=N)N)cc1)O2 (configuration not stated)
5. CCOC(=O)CN(Cc1cccc(F)c1)c1ccc2c(c1)OC(C)(COc1ccc(C(=N)N)cc1)CN2C (configuration not stated)

1. Non-toxic
2. Non-toxic
3. Toxic
4. Non-toxic
5. Toxic

The recorded Activity for entry CCOC(=O)CN(Cc1ccc(F)cc1)c1ccc2c(c1)OC(C)(COc1ccc(C(=N)N)cc1)CN2C (configuration not stated) equals Toxic

* * *

test: Cytotoxicity against bovine BAEC cells at 30 uM after 3 days by coulter counter method; format: cell-based, Bos taurus; settings: cattle, 72 h

{"columns": ["COMPOUND", "Activity"],
 "data": [
  ["CCOC(=O)C(=O)N(Cc1cccc(F)c1)c1ccc2c(c1)N(C)CC(C)(COc1ccc(C(=N)N)cc1)O2 (centres undefined)", "Non-toxic"],
  ["CCOC(=O)C(=O)N(Cc1cc(F)cc(F)c1)c1ccc2c(c1)OC(C)(COc1ccc(C(=N)N)cc1)CN2C (centres undefined)", "Non-toxic"],
  ["CCOC(=O)C(=O)N(Cc1cccc(F)c1)c1ccc2c(c1)OC(C)(COc1ccc(C(=N)N)cc1)CN2C (centres undefined)", "Non-toxic"],
  ["CCOC(=O)CN(Cc1cc(F)cc(F)c1)c1ccc2c(c1)N(C)CC(C)(COc1ccc(C(=N)N)cc1)O2 (centres undefined)", "Toxic"]
]}

* * *

system: MCF7; test: Cytotoxicity against human MCF7 cells at 30 uM after 3 days by coulter counter method; type: cell-based; conditions: mcf7, 72 h
MEASURED ENDPOINT: Activity

Use the examples below as a reference point.
{"columns": ["MOLECULE", "Activity"],
 "data": [
  ["CCOC(=O)C(=O)N(Cc1ccc(F)c(F)c1)c1ccc2c(c1)N(C)CC(C)(COc1ccc(C(=N)N)cc1)O2 (stereo not drawn)", "Non-toxic"],
  ["CCOC(=O)C(=O)N(Cc1ccc(F)cc1)c1ccc2c(c1)OC(C)(COc1ccc(C(=N)N)cc1)CN2C (stereo not drawn)", "Non-toxic"],
  ["CCOC(=O)C(=O)N(Cc1cc(F)cc(F)c1)c1ccc2c(c1)OC(C)(COc1ccc(C(=N)N)cc1)CN2C (stereo not drawn)", "Non-toxic"],
  ["CCOC(=O)CN(Cc1cc(F)cc(F)c1)c1ccc2c(c1)OC(C)(COc1ccc(C(=N)N)cc1)CN2C (stereo not drawn)", "Toxic"]
]}

Give one value of Activity per listed molecule.
1. CCOC(=O)C(=O)N(Cc1cccc(F)c1)c1ccc2c(c1)N(C)CC(C)(COc1ccc(C(=N)N)cc1)O2 (stereo not drawn)
2. CCOC(=O)CN(Cc1ccc(F)c(F)c1)c1ccc2c(c1)OC(C)(COc1ccc(C(=N)N)cc1)CN2C (stereo not drawn)
3. CCOC(=O)CN(Cc1ccc(F)cc1)c1ccc2c(c1)N(C)CC(C)(COc1ccc(C(=N)N)cc1)O2 (stereo not drawn)
4. CCOC(=O)CN(Cc1cccc(F)c1)c1ccc2c(c1)N(C)CC(C)(COc1ccc(C(=N)N)cc1)O2 (stereo not drawn)

Non-toxic
Toxic
Toxic
Toxic

The reported numbers originate from ChEMBL document CHEMBL2216753.
